System: fruit of grape (variety: Red Globe)
measurement-setup: 12 days later
Protocol: An agent for increasing a sugar content in a fruit (containing Sorbon T-20 as a spreader/sticker at a final concentration of 200 μL/L) diluted with water to have a potassium hydrogen carbonate concentration of 10 g/L was prepared. The mass of fruit of grape (variety: Red Globe) purchased on the market was measured. […] In addition, as a control, the mass of untreated grape was measured on each date of measurement in the same manner. […]
property: Mass (g) of fruit per 100 g of fruit on date of application
Give just the numeric value; g need not be written.

Answered examples (4):
{"molecule": "O=P([O-])([O-])[O-].[K+].[K+].[K+] [Tripotassium phosphate, tripotassium phosphate]", "assay-result": 66.9}
{"molecule": "O=C([O-])[O-].[Na+].[Na+] [Sodium carbonate, sodium carbonate]", "assay-result": 69.7}
{"molecule": "O=C([O-])O.[Na+] [Sodium hydrogen carbonate, sodium hydrogen carbonate]", "assay-result": 72.7}
{"molecule": "O=C([O-])O.[K+] [Potassium hydrogen carbonate, potassium hydrogen carbonate]", "assay-result": 62.8}

We next turn to a different molecule, shown below.
Kindly note the recorded Mass (g) of fruit per 100 g of fruit on date of application for O=C([O-])[O-].[K+].[K+] [Potassium carbonate, potassium carbonate] , which is 60

###

System: fruit of grape (variety: Red Globe)
measurement-setup: 14 days later
property: Mass (g) of fruit per 100 g of fruit on date of application
Just the number please, in g, no unit attached.

Look over these answered cases.
{"compound": "O=C([O-])O.[K+] [Potassium hydrogen carbonate, potassium hydrogen carbonate]", "measurement-target": "fruit of grape (variety: Red Globe)", "assay-result": 57.4}
{"compound": "O=C([O-])O.[Na+] [Sodium hydrogen carbonate, sodium hydrogen carbonate]", "measurement-target": "fruit of grape (variety: Red Globe)", "assay-result": 68.5}
{"compound": "O=P([O-])([O-])[O-].[K+].[K+].[K+] [Tripotassium phosphate, tripotassium phosphate]", "measurement-target": "fruit of grape (variety: Red Globe)", "assay-result": 62.4}
{"compound": "O=C([O-])[O-].[K+].[K+] [Potassium carbonate, potassium carbonate]", "measurement-target": "fruit of grape (variety: Red Globe)", "assay-result": 54.2}

Below: the item to evaluate.
Record O=C([O-])[O-].[Na+].[Na+] [Sodium carbonate, sodium carbonate] . Reported Mass (g) of fruit per 100 g of fruit on date of application: 65.4

###

Tested on: fruit of grape (variety: Red Globe)
measurement-setup: 12 days later
property: Estimated amount (g) of transpiration per 100 g of fruit on date of application
The response must be a number in g with no trailing unit.

Some compounds with known Estimated amount (g) of transpiration per 100 g of fruit on date of application results, for comparison:
{"compound": "O=P([O-])([O-])[O-].[K+].[K+].[K+] [Tripotassium phosphate, tripotassium phosphate]", "measurement-target": "fruit of grape (variety: Red Globe)", "unit": "g", "assay-result": 33.1}
{"compound": "O=C([O-])O.[K+] [Potassium hydrogen carbonate, potassium hydrogen carbonate]", "measurement-target": "fruit of grape (variety: Red Globe)", "unit": "g", "assay-result": 37.2}
{"compound": "O=C([O-])[O-].[Na+].[Na+] [Sodium carbonate, sodium carbonate]", "measurement-target": "fruit of grape (variety: Red Globe)", "unit": "g", "assay-result": 30.3}
{"compound": "O=C([O-])O.[Na+] [Sodium hydrogen carbonate, sodium hydrogen carbonate]", "measurement-target": "fruit of grape (variety: Red Globe)", "unit": "g", "assay-result": 27.3}

Looking up O=C([O-])[O-].[K+].[K+] [Potassium carbonate, potassium carbonate] , I found its Estimated amount (g) of transpiration per 100 g of fruit on date of application recorded as 40
